Catalogue of variants with associated self-cleavage
B1: HDV Ribozyme (parent)
chain: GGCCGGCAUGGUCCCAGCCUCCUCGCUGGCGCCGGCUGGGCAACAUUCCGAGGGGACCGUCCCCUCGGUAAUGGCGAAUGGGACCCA

# Variants of: B1
# PROCEDURE TEXT: self-cleavage, relative activity (ratio to wild type); higher = more cleavage; co-transcriptional
No unit in the answer, only the number.

Reported self-cleavage, variant GGCCGGCAUGGUCCCAGCCUCCUCGCUGGCGCCGGCUGGGCAACAUUCCGAGAGGACCGUCCCCUCGGCAAUGGCGAAUGGGACCCA [G53A U69C] : ____ 1.11

Reported self-cleavage, variant GGCCGGCAUGGUCCCAGCCUCCUCGCUGGCGCCGGCUGGGCAACAUUCCGAGGGGACAGUCCCCUCGGUAAUGGCGAAUGGGACCGA [C58A C86G] : ____ 0.909
